system: SF-295 CNS; assay: NCI-60 one-dose screen, 48 h (100 = growth as untreated, 0 = no growth, -100 = all killed); conditions: 10 µM unless noted
This is part of a sample that, as a whole, favours compounds with a hit. Of some 83,000 tested, about 20% had one in any assay.
# growth >= 90% gives YES, anything below gives NO

>  <compound>
C=C1C(=O)O[C@H]2[C@H]1CC/C(COC(=O)NCc1ccc(Cn3c(=O)sn(CCCCC)c3=O)cc1)=C\CC[C@@]1(C)O[C@@H]21

>  <answer label>
YES

$$$$
>  <compound>
O=C(c1ccccc1)c1ccc(C2CCCCC2)cc1

>  <answer label>
YES

$$$$

Does `O=C(COc1ccc(-c2nc3cc(Cl)c(Cl)cc3[nH]2)cc1)N=Nc1c(O)[nH]c2ccc(Cl)cc12` have a reported growth of at least 90%?
NO

Decide: growth of `COC(=O)[C@]1(C)CCC[C@]2(C)[C@H]3C[C@H]4C(C(C)C)=C[C@]3(CC[C@H]21)[C@@H]1C(=O)CC[C@H](OCCC#N)[C@@H]14` >= 90%?
NO

Can CCn1cc(C(=O)O)c(=O)c2cc(F)c(N3CCN(CC(=O)Nc4ccc(S(=O)(=O)Nc5nccc(C)n5)cc4)C(C)C3)c(F)c21 (stereo not drawn) be said to have growth at or above 90%?
YES

# bool: growth of `O=C(O)c1ccc(-n2cc(/C=N/Nc3ccccc3)c(-c3ccc(F)cc3F)n2)cc1` >= 90%
NO

For this compound, is measured growth 90% or higher? `O=C(/C=C(/C=C/c1ccc2[nH]ccc2c1)OB(F)F)/C=C/c1ccc2[nH]ccc2c1`
NO
